Target: T1, human PD-L1 (human, UniProt Q9NZQ7 19-290)
T1 construct: whole, on cells; CHO cells stably expressing huPD-L1; also called huPD-L1
T1 sequence (Q9NZQ7 19-290): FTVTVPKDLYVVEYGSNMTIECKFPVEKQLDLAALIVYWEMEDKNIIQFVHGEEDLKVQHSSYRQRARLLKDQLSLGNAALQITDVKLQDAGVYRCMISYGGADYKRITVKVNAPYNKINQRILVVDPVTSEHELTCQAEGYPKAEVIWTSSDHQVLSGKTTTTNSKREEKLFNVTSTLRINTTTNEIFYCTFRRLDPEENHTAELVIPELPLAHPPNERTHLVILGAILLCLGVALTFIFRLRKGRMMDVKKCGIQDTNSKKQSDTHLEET
Experiment: flow cytometry, MFI on CHO/huPD-L1 cells divided by MFI on Jurkat cells (CD28), 33.3 nM
assayReadout: Ratio of PDL1:CD28 (ratio)

{"binder": "variant CD80 IgV-Fc (inert) H18L/A26N/D46E/V68M/A71G/D90G (Fc fusion, not shown: inert human IgG1 Fc) VIHVTKEVKEVATLSCGLNVSVEELNQTRIYWQKEKKMVLTMMSGEMNIWPEYKNRTIFDITNNLSIMILGLRPSDEGTYECVVLKYEKGAFKREHLAEVTLSVKAD", "unitAnnotation": "ratio", "measValue": 9.4}
{"binder": "variant CD80 IgV-Fc (inert) H18V/A26D/E35D/M47V/V68M/A71G/D90G (Fc fusion, not shown: inert human IgG1 Fc) VIHVTKEVKEVATLSCGVNVSVEELDQTRIYWQKDKKMVLTMMSGDVNIWPEYKNRTIFDITNNLSIMILGLRPSDEGTYECVVLKYEKGAFKREHLAEVTLSVKAD", "unitAnnotation": "ratio", "measValue": 10.8}
{"binder": "variant CD80 IgV-Fc (inert) H18Y/A26P/E35D/M47I/V68M/A71G (Fc fusion, not shown: inert human IgG1 Fc) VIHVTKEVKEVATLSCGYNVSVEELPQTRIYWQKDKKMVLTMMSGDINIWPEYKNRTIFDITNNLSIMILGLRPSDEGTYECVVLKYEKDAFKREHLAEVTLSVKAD", "unitAnnotation": "ratio", "measValue": 10.6}
{"binder": "variant CD80 IgV-Fc (inert) H18Y/A26P/E35D/M47Y/V68I/A71G/D90G (Fc fusion, not shown: inert human IgG1 Fc) VIHVTKEVKEVATLSCGYNVSVEELPQTRIYWQKDKKMVLTMMSGDYNIWPEYKNRTIFDITNNLSIIILGLRPSDEGTYECVVLKYEKGAFKREHLAEVTLSVKAD", "unitAnnotation": "ratio", "measValue": 15}
{"binder": "variant CD80 IgV-Fc (inert) H18T/A26N/E35D/M47L/V68M/A71G (Fc fusion, not shown: inert human IgG1 Fc) VIHVTKEVKEVATLSCGTNVSVEELNQTRIYWQKDKKMVLTMMSGDLNIWPEYKNRTIFDITNNLSIMILGLRPSDEGTYECVVLKYEKDAFKREHLAEVTLSVKAD", "unitAnnotation": "ratio", "measValue": 50.1}
